system: NCI-H522 lung; test: NCI tumour cell line growth inhibition, 48 h
Value Type: TGI

Solved cases (2 shown):
                                   compound    result
0  CC(=O)N[C@@H](Cc1ccc(OP(=O)(O)O)cc1)C(=O)N[C@H]1CCC(=O)N2CCC[C@@H](C(=O)NC3CCc4ccccc43)N2C1=O (stereo partly drawn)   > 25 µM
1  CC(=O)Oc1cc(-c2oc3cc(OC(C)=O)c(C4OC(CO)C(O)C(O)C4O)c(OC(C)=O)c3c(=O)c2O)c(OC(C)=O)cc1O (stereo not drawn)  > 100 µM

Turning now to a further record.
INPUT: Quick check: TGI of `O=C(Nc1ccc(F)cc1)c1cc2c(cc1Cl)Sc1nccn1S2(=O)=O` ?
OUTPUT: > 100 µM

###

system: A549 NSCLC; experiment: NCI tumour cell line growth inhibition, 48 h; in the data active means GI50 below about 0.43 µM; inactive means the rest
// allowed return values: active, inactive

Observe how each entry below is paired with its result.
>>> df
                                   compound      system     label
0  COC(=O)c1cccc(NC(=O)c2ccc(NC3=C(Cl)C(=O)N(Cc4ccccc4)C3=O)cc2)c1  A549 NSCLC  inactive
1  O=C(CN1CCN(C(=O)c2ccco2)CC1)Nc1ccc(Cl)cc1C(=O)c1ccccc1Cl  A549 NSCLC  inactive
2  CO/C(=C1/NC(=O)C(Cc2ccc(O)c(Br)c2)N(C)C(=O)C(C)NC(=O)CCC/C=C(\C)CCC(C)OC1=O)c1ccccc1 (centres undefined)  A549 NSCLC    active
3  COc1cc(C(=O)NN=C2c3ccccc3-c3ccccc32)cc(OC)c1OC  A549 NSCLC  inactive
4       CC(=O)Nc1cc2c3c(cccc3c1)-c1ccccc1-2  A549 NSCLC  inactive
5  CC/C(=C(/c1ccc(OCCN(C)C)cc1)c1ccc(OC(=O)CCCCCCCCC(=O)c2c(C)[nH]c(/C=C3\N=C(c4ccc[nH]4)C=C3OC)c2C)cc1)c1ccccc1  A549 NSCLC  inactive
6  COc1ccc(/C=C/C(=O)/C=C(O)/C=C/c2ccc(OC)c(OC)c2)cc1OC  A549 NSCLC  inactive
7      CC(=O)ON=C1C=CC(=C(C#N)c2ccccc2)C=C1  A549 NSCLC  inactive

Next up:
INPUT: Dear colleague, could you share the recorded outcome for `COc1ncc(-c2ccc3nccc(C#CCCCCC(=O)NO)c3c2)cc1NS(=O)(=O)c1ccc(F)cc1F` when you have a moment?
OUTPUT: active

###

tested on: SK-MEL-2 melanoma; assay: NCI tumour cell line growth inhibition, 48 h
TGI listing for selected molecules.

INPUT: Quick check: TGI of `Cn1c(=S)[nH]c(N)c(Cc2ccccc2)c1=O` ?
OUTPUT: > 100 µM

INPUT: Next molecule: CC1CCc2c(sc3ncnc(N/N=C/c4ccc(Cl)cc4)c23)C1 (stereo unspecified)
OUTPUT: > 100 µM

INPUT: Next molecule: `C=C(C)[C@H]1CC(=O)[C@@]2(C)C[C@H]3O[C@]3(C)CC/C=C(\C)CC[C@H]12`
OUTPUT: > 100 µM

INPUT: Next molecule: CC1(C)N([O-])[N+](=O)C1(C)O (stereo unspecified)
OUTPUT: > 100 µM

INPUT: Next molecule: Nc1n[nH]c2ccc([C@@H]3Nc4ccc5cn[nH]c5c4[C@H]4C5CCC(C5)[C@@H]34)cc12 (stereo partly specified)
OUTPUT: > 100 µM

INPUT: Next molecule: `C=CCOCn1cnc2c(=O)[nH]c(N)nc21`
OUTPUT: > 100 µM

INPUT: Next molecule: `COC(=O)c1cccc(NC(=O)c2ccc(NC3=C(Cl)C(=O)N(Cc4ccccc4)C3=O)cc2)c1`
OUTPUT: 44.2 µM

INPUT: Next molecule: O=c1/c(=C\c2ccc(Br)cc2)sc2n1C(c1ccc(Br)cc1)C1=C(N=2)c2ccc3ccccc3c2OCC1 (stereo unspecified)
OUTPUT: > 100 µM

INPUT: Next molecule: `Cc1ccc(-c2cc(=O)c(=O)[nH][nH]2)cc1`
OUTPUT: > 100 µM

INPUT: Next molecule: `OC(Cc1cc(CC(O)(C(F)(F)F)C(F)(F)F)nc(CC(O)(C(F)(F)F)C(F)(F)F)c1)(C(F)(F)F)C(F)(F)F`
OUTPUT: 4.31 µM

INPUT: Next molecule: `CN(Cc1cnc2nc(N)nc(N)c2n1)c1ccc(C(=O)NCCCC(=O)O)cc1`
OUTPUT: > 100 µM

INPUT: Next molecule: `COc1cc2c(cc1OCCCN1CCN(C(=S)SCCC(C#N)(c3ccccc3)c3ccccc3)CC1)N=C[C@@H]1CCCN1C2=O`
OUTPUT: 2.91 µM

INPUT: Next molecule: C=C1CN2CCc3c([nH]c4ccccc34)C2CC1CC(=O)N(C)C (stereo unspecified)
OUTPUT: > 309 µM

INPUT: Next molecule: `Cn1c(=O)cc(Nc2ccc(N)cc2)[nH]c1=O`
OUTPUT: > 100 µM

INPUT: Next molecule: `CCOc1cc2c(cc1O)C(=O)C[C@@H]1[C@@H]2CC[C@]2(C)[C@@H](O)CC[C@@H]12`
OUTPUT: > 58.1 µM

INPUT: Next molecule: `COc1ccc(/C=C/C(=O)CCN2CCN(CCC(=O)/C=C/c3ccc(OC)cc3)CC2)cc1`
OUTPUT: 42 µM

INPUT: Next molecule: `COc1c(B(O)O)cccc1-c1nc2c(F)cc3n[nH]c(C)c3c2c2c1CCCC2`
OUTPUT: 3.6 µM

INPUT: Next molecule: `Fc1ccc(Nc2nc3nonc3nc2Nc2ccc(I)cc2)cc1`
OUTPUT: 0.617 µM

INPUT: Next molecule: `Cc1cc(-c2cc(OC(=O)c3ccccc3)ccc2Cl)cc2nnc(Nc3ccc(OCCN4CCCC4)cc3)nc12`
OUTPUT: 3.45 µM

INPUT: Next molecule: `O=C(/C=C/C=C/c1ccc2c(c1)OCO2)N/N=C\c1ccc(O)cc1O`
OUTPUT: 27 µM

INPUT: Next molecule: CC(=O)N[C@@H](Cc1ccc(OP(=O)(O)O)cc1)C(=O)N[C@H]1CCC(=O)N2CCC[C@@H](C(=O)NC3CCc4ccccc43)N2C1=O (stereo partly specified)
OUTPUT: > 25 µM

###

system: OVCAR-5 ovarian; assay: NCI tumour cell line growth inhibition, 48 h
TGI listing for selected compounds.

Solved cases (8 shown):
                                   compound    result
0       COc1cc(CC(=O)O)c([N+](=O)[O-])cc1OC  > 100 µM
1  CC1(C)N([O-])[N+](=O)C1(C)O (stereo not drawn)  > 100 µM
2              O=C1c2ccccc2C(=O)N1NC1=NCCN1  > 100 µM
3  Cc1c(C(=O)c2ccccc2)[n+](=O)c2cc(F)c(F)cc2n1[O-]   33.8 µM
4                COCCCNc1c2ccccc2nc2ccccc12   6.93 µM
5  C[C@]12CC[C@@H]3c4ccc(OC(=O)N(CCCl)CCCl)cc4CC[C@H]3[C@@H]1CC[C@@H]2OP(=O)(O)O  > 100 µM
6  COC(=O)C(C(=O)C(=O)Nc1ccccc1C)c1nc2ccc([N+](=O)[O-])cc2[nH]c1=O (stereo not drawn)  > 100 µM
7             CSC1=Nc2ccccc2N=C(c2ccccc2)C1  > 100 µM

INPUT: Quick check: TGI of `CC(=O)Nc1cc2c3c(cccc3c1)-c1ccccc1-2` ?
OUTPUT: 35.7 µM

INPUT: Next compound: `N#CCCN(c1ccc(C=O)cc1)S(=O)(=O)c1ccccc1`
OUTPUT: > 100 µM

INPUT: Next compound: `c1ccc2c(c1)-c1ccccc1C2NC1=NCCO1`
OUTPUT: > 100 µM

INPUT: Next compound: `O=C(O)c1ccc(Nc2cnc3cc(C(F)(F)F)ccc3n2)cc1`
OUTPUT: > 100 µM

INPUT: Next compound: `S=C(S)NCCN1CCNCC1`
OUTPUT: > 100 µM

INPUT: Next compound: `c1ccc(/C(=N/Nc2ccccn2)c2cccnn2)cc1`
OUTPUT: > 100 µM

INPUT: Next compound: `Cc1cc(=O)oc2c(C)c3oc(CBr)cc3cc12`
OUTPUT: 36.8 µM

INPUT: Next compound: `O=c1c2cc([N+](=O)[O-])ccc2n2n1CCCCC2`
OUTPUT: > 100 µM

INPUT: Next compound: `O=C(/C=C/C=C/c1ccc2c(c1)OCO2)N/N=C\c1ccc(O)cc1O`
OUTPUT: 27.4 µM

INPUT: Next compound: CCCCCCCCCCCCCCCCCC[S+](C)CC (stereo not drawn)
OUTPUT: 4.25 µM

INPUT: Next compound: `Cc1cc(C)c(/C=N/NS(=O)(=O)c2ccccc2)c(C)c1`
OUTPUT: > 100 µM

INPUT: Next compound: Nc1n[nH]c2ccc([C@@H]3Nc4ccc5cn[nH]c5c4[C@H]4C5CCC(C5)[C@@H]34)cc12 (stereo partly drawn)
OUTPUT: 99.3 µM

INPUT: Next compound: `Cc1ccc(S(=O)(=O)Nn2c(S)c(C#N)c(-c3ccc(Cl)cc3)c(C#N)c2=O)cc1`
OUTPUT: > 100 µM

INPUT: Next compound: `COC(=O)C1Cc2cc3c(cc2C1)CCC3`
OUTPUT: > 100 µM

INPUT: Next compound: c1ccc(CC(Nc2cccnc2)c2ccccc2)cc1 (stereo not drawn)
OUTPUT: 98.8 µM

INPUT: Next compound: `C[C@@H](c1ccccc1)N1CO[C@@]2(C#Cc3ccc4c(c3)OCO4)CCC[C@@H]12`
OUTPUT: 32 µM

INPUT: Next compound: `CC1=CC[C@@H](C(C)(C)O)C[C@@H]1O`
OUTPUT: > 5000 µM

Sourced from PubChem BioAssay (NCI)
